Study System: T1, soluble human FcRn (human, UniProt P55899 24-297; P61769 21-119, biotinylated (Sulfo-NHS-LC-Biotin) in the ELISA; amine-coupled to CM5 chip in SPR)
T1 construct: also called shFcRn; biotinylated shFcRn
T1 sequence (P55899 24-297 limits assumed, chain 1 of 2): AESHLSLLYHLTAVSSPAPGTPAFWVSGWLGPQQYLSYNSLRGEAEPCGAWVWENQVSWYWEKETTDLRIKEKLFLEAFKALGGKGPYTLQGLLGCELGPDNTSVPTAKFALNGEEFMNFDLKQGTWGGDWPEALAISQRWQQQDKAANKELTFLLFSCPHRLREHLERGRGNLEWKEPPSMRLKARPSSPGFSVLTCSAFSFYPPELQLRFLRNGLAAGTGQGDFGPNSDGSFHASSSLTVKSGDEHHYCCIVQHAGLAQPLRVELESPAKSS
T1 sequence (P61769 21-119 limits assumed, chain 2 of 2): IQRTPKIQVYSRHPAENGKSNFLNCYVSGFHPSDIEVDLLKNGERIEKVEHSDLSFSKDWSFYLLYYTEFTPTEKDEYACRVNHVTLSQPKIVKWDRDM
Measurement Protocol: ELISA, competitor human IgG
Catalogue of IC50 readings, one per entry.
Write the number in µM without appending the unit.

# count of solved cases: 2
QRFXTGHFGGLXPCNGP (Pen at 4; 3-pyridylAla at 12; disulfide; C-terminal amide) [Peptide No. 67] ... 92
QRFXTGHFGGLXPCNGP (Pen at 4; 4-fluoro-Phe at 12; disulfide; C-terminal amide) [Peptide No. 140] ... 26

Enquiry: # query: IC50 of entry QRFXTGHFGGLYPCNGP (Pen (L-penicillamine) at 4; disulfide; C-terminal amide) [Peptide No. 32]
Return: 2

Enquiry: Follow-up entry: QRFXTGHFGGLXPCNGP (Pen at 4; 4-amino-Phe at 12; disulfide; C-terminal amide) [Peptide No. 63]
Return: 110
